The reported measurements were obtained from PubChem BioAssay AID1963440.

Collected viability, T/C values appear next to each entry.
# Test system: NCI-H1417 complex spheroids, growth % test/control
# test-method-notes: Anticancer human tumor NCI-H1417 cell line growth inhibition [Asc];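 also: spheroids exposed to compounds for 7 days; 100% = DMSO vehicle control wells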
# condition-notes: second compound 0.316 µM; first compound 0.000316 µM; active compounds read low
Write down the numeric answer in % and omit the unit.

Check out these entries, answers already filled in.
NC1CCC(NC2CC2c2ccccc2)CC1 (centres undefined) + Cc1c(S(C)(=O)=O)c(-c2cc(F)cc(N3CCN(c4ccc(NS(=O)(=O)c5ccc(NC(CCN6CCC(C(=O)OCCCP(=O)(O)O)CC6)CSc6ccccc6)c(S(=O)(=O)C(F)(F)F)c5)cc4)CC3)c2)c(-c2ccc(Cl)cc2)n1C(C)C ... 45.1
Cn1ncnc1[C@H]1c2n[nH]c(=O)c3cc(F)cc(c23)N[C@@H]1c1ccc(F)cc1 + CNC(C)C(=O)NC1CN(S(=O)(=O)c2cccc(S(=O)(=O)N3CCC4CCC(C(=O)NC(c5ccccc5)c5ccccc5)N4C(=O)C(NC(=O)C(C)NC)C3)c2)CCC2CCC(C(=O)NC(c3ccccc3)c3ccccc3)N2C1=O ... 99.6
Cn1ncnc1[C@H]1c2n[nH]c(=O)c3cc(F)cc(c23)N[C@@H]1c1ccc(F)cc1 + Cc1c(S(C)(=O)=O)c(-c2cc(F)cc(N3CCN(c4ccc(NS(=O)(=O)c5ccc(NC(CCN6CCC(C(=O)OCCCP(=O)(O)O)CC6)CSc6ccccc6)c(S(=O)(=O)C(F)(F)F)c5)cc4)CC3)c2)c(-c2ccc(Cl)cc2)n1C(C)C ... 46.7

As a next step, examine the compound that follows.
I have this compound here, NC1CCC(NC2CC2c2ccccc2)CC1 (centres undefined) + CNC(C)C(=O)NC1CN(S(=O)(=O)c2cccc(S(=O)(=O)N3CCC4CCC(C(=O)NC(c5ccccc5)c5ccccc5)N4C(=O)C(NC(=O)C(C)NC)C3)c2)CCC2CCC(C(=O)NC(c3ccccc3)c3ccccc3)N2C1=O , and I need its recorded viability, T/C.
87.6

###

# Test system: NCI-H1417 complex spheroids, growth % test/control
# test-method-notes: Anticancer human tumor NCI-H1417 cell line growth inhibition [Asc];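 also: spheroids exposed to compounds for 7 days; 100% = DMSO vehicle control wells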
# condition-notes: second compound 0.1 µM; first compound 0.00316 µM; active compounds read low
parameter: viability, T/C (%)
Field: numeric (%). Do not append units.

For orientation, consider the following solved cases.
COc1c(OCCCN2CCOCC2)ccc2c3n(c(=NC(=O)c4cnc(N)nc4)nc12)CCN3 + Cc1c(S(C)(=O)=O)c(-c2cc(F)cc(N3CCN(c4ccc(NS(=O)(=O)c5ccc(NC(CCN6CCC(C(=O)OCCCP(=O)(O)O)CC6)CSc6ccccc6)c(S(=O)(=O)C(F)(F)F)c5)cc4)CC3)c2)c(-c2ccc(Cl)cc2)n1C(C)C ... 79.6
CCN1CCN(Cc2ccc(Nc3ncc(F)c(-c4cc(F)c5nc(C)n(C(C)C)c5c4)n3)nc2)CC1 + Cc1c(S(C)(=O)=O)c(-c2cc(F)cc(N3CCN(c4ccc(NS(=O)(=O)c5ccc(NC(CCN6CCC(C(=O)OCCCP(=O)(O)O)CC6)CSc6ccccc6)c(S(=O)(=O)C(F)(F)F)c5)cc4)CC3)c2)c(-c2ccc(Cl)cc2)n1C(C)C ... 88.6
NC1CCC(NC2CC2c2ccccc2)CC1 (stereo unspecified) + CNC(C)C(=O)NC1CN(S(=O)(=O)c2cccc(S(=O)(=O)N3CCC4CCC(C(=O)NC(c5ccccc5)c5ccccc5)N4C(=O)C(NC(=O)C(C)NC)C3)c2)CCC2CCC(C(=O)NC(c3ccccc3)c3ccccc3)N2C1=O ... 85.5
NC1CCC(NC2CC2c2ccccc2)CC1 (stereo unspecified) + Cc1c(S(C)(=O)=O)c(-c2cc(F)cc(N3CCN(c4ccc(NS(=O)(=O)c5ccc(NC(CCN6CCC(C(=O)OCCCP(=O)(O)O)CC6)CSc6ccccc6)c(S(=O)(=O)C(F)(F)F)c5)cc4)CC3)c2)c(-c2ccc(Cl)cc2)n1C(C)C ... 61.8
COc1c(OCCCN2CCOCC2)ccc2c3n(c(=NC(=O)c4cnc(N)nc4)nc12)CCN3 + CNC(C)C(=O)NC1CN(S(=O)(=O)c2cccc(S(=O)(=O)N3CCC4CCC(C(=O)NC(c5ccccc5)c5ccccc5)N4C(=O)C(NC(=O)C(C)NC)C3)c2)CCC2CCC(C(=O)NC(c3ccccc3)c3ccccc3)N2C1=O ... 95.4

Note: attention shifts to another entry.
Please report the recorded viability, T/C for Cn1ncnc1[C@H]1c2n[nH]c(=O)c3cc(F)cc(c23)N[C@@H]1c1ccc(F)cc1 + Cc1c(S(C)(=O)=O)c(-c2cc(F)cc(N3CCN(c4ccc(NS(=O)(=O)c5ccc(NC(CCN6CCC(C(=O)OCCCP(=O)(O)O)CC6)CSc6ccccc6)c(S(=O)(=O)C(F)(F)F)c5)cc4)CC3)c2)c(-c2ccc(Cl)cc2)n1C(C)C .
54.8
